Target: huR1b
Experiment: ELISA
recorded_metric: pEC50
Answer as the number alone; pEC50 is minus log10 of concentration in mol/L.

### Prompt I have this binder here, CLSDQFTCRSTNICLPLQWVCDGDDDCEDNSDEEDCSAPASEPPGSL (designed binder) [R1c_M31] , and I need its recorded pEC50.
### Response 6.95

### Prompt I have this binder here, CGAGQFTCRDTNICISRAWRCDGVDDCEDNSDEADCSQDPEFHKV (designed binder) [R1c_M08] , and I need its recorded pEC50.
### Response 7.77
